Target: T1, PUF4 RNA-binding domain (Saccharomyces cerevisiae, UniProt P25339 537-888)
T1 sequence: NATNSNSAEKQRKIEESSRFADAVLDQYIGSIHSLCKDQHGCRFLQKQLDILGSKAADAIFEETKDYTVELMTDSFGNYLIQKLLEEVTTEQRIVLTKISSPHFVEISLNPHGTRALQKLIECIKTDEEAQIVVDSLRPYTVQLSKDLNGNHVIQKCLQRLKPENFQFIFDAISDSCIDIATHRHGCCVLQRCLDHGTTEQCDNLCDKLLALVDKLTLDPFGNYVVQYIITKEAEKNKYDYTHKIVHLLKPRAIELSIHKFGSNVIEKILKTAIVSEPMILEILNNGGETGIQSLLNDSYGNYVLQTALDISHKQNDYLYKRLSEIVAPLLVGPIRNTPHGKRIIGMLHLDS
Assay: Mg; RNA-MaP; 20 mM Na-HEPES pH 7.4, 30 mM KOAc, 0.75 mM MgCl2, 0.1% Tween-20, 5% glycerol, 0.1 mg/mL BSA, 2 mM DTT; 25 C; 0.0125-409.6 nM protein
Settings: tags: N-His6-TEV cleaved; C-SNAP kept, Cy3B-labelled; label: tethered on chip by stalled RNA polymerase
attribute_measured: pKd
Here pKd is given on a logarithmic scale as minus log10 of the concentration in mol/L.

pKd lookup needed for UCUCUUUGUAAAGUUCUCUU (ssRNA) [Ic_S1_P3E.1_K3.1_C3.1_H3.1_A3.1_[T5A]_F3.1_[T7G]_[A8T]_T3.1] , thanks.
6.87

pKd lookup needed for Id_ii_S2_P4E.3_K4.2_C4.2_[T-1C]_H4.2_A4.1_F4.1_T4.2_[G10C]_[T11A] (ssRNA) RNA: UUUGAUUAAUAUGAUAUCGUUCUUUCUCCUAUAUAUUACAUUCUUUCUCGAUAUCAUAUUAAUCUUU , thanks.
8.00

pKd lookup needed for UCUCUUUGUAUCCAUUUCUCUU (ssRNA) [Ic_S1_P5E.1_K5.1_C5.1_H5.1_A5.1_[T6C]_[A7C]_F5.1_[T8A]_[A10T]_T5.1] , thanks.
6.92

Origin of measurements: paper PMC9352680
